# test: qHTS for Inhibitors of human tyrosyl-DNA phosphodiesterase 1 (TDP1): qHTS in cells in presence of CPT; further: nearly all actives have a fitted effect of over 55% in size
# experimental.conditions: chicken DT40 Tdp1-/-;hTDP1 cells + 20 nM CPT, ATP luminescence, 48 h; series mostly up to 46.2 µM
Among all 420,000 compounds or so, about 50,000 (12%) were called active. Not shown: some 26% with an inconclusive outcome. The call rests on the fitted dose curve; in most records, active means well fitted inhibition curve with a large enough effect; inconclusive means small, poorly fitted or top-dose-only effect; inactive means flat fitted curve, though single readings scatter. Only a selection was taken, and actives are over-represented in it overall.
Possible outcomes: active, inactive

| smiles.input | class |
| --- | --- |
| COc1cccc(C(=O)NCc2ccc3c(c2)CCN3C(=O)c2ccncc2)c1 | inactive |
| Cc1ccc(N(Cc2cc(=O)[nH]c3ccccc23)C(=O)CCl)cc1 | active |
| O=C(CCc1ccccc1)NCc1ccc2c(c1)CCN2C(=O)c1ccccc1 | active |
| CN1C(=O)C2(OCCCO2)c2cc(Cl)ccc21 | inactive |
| O=c1cc(-c2ccccc2)[nH]c2cc(F)ccc12 | active |
| COc1cc(Br)cc2cc(S(=O)(=O)c3ccccc3)c(=O)oc12 | inactive |
| Cc1ccc(S(=O)(=O)/N=C(\N)c2ccc(F)cc2)cc1 | inactive |
| O=c1[nH]c(-c2ccccc2)c(-c2ccccc2)[nH]1 | inactive |
| Cc1ccc(N(Cc2cc3ccccc3[nH]c2=O)C(=O)c2cccs2)cc1 | inactive |
| O=C(COc1ccccc1[N+](=O)[O-])N/N=C/c1ccc[nH]1 | inactive |
| Cc1ccc(-c2cc(=O)c3ccc(F)cc3[nH]2)cc1 | active |

----------
# test: qHTS for Inhibitors of human tyrosyl-DNA phosphodiesterase 1 (TDP1): qHTS in cells in presence of CPT; further: nearly all actives have a fitted effect of over 55% in size
# experimental.conditions: chicken DT40 Tdp1-/-;hTDP1 cells + 20 nM CPT, ATP luminescence, 48 h; series mostly up to 46.2 µM
About 50,000 (12%) of roughly 420,000 compounds were called active. About 26% were inconclusive and are not listed. Calls come from the whole dose curve; as a rule, active = well fitted inhibition curve with a large enough effect; inconclusive = small, poorly fitted or top-dose-only effect; inactive = flat fitted curve, though single readings scatter. Shown is part of a subset that was picked to be rich in actives.
Outcomes: true (1) (active), false (0) (inactive)

| molecule | class |
| --- | --- |
| COc1ccc(C2=NS(=O)(=O)N(C)C(C(=O)N3CCCCC3)=C2)cc1 | false (0) |
| O=C(Nc1ccccn1)C1CCN(S(=O)(=O)c2ccc3c(c2)OCCO3)CC1 | false (0) |
| CCCC(O)(c1ccc(OC)cc1)C(CN(C)C)c1ccccc1 (stereo unspecified) | false (0) |
| COc1cc(OC)c(/C=C/c2ccnc3ccccc23)c(OC)c1 | true (1) |
| COc1ccc(C=Nc2cccc3ncccc23)cc1 | false (0) |
| COc1ccc(/C=C2/C(=O)N(c3ccccc3)N=C2C)c(OC)c1 | false (0) |
| Cc1ccc(C)c(NC(=O)CCC(=O)N/N=C2/CC(=O)CC(C)(C)C2)c1 | false (0) |
| CCCNC(=O)N1CCC(c2ccc3c(c2)OCO3)CC1 | false (0) |
| COc1ccc(/C=N/Nc2nc3ccccc3c(=O)[nH]2)cc1 | false (0) |
| COc1cc(NC(=O)C2=CC(c3ccco3)=NS(=O)(=O)N2C)cc(OC)c1OC | false (0) |
| O=C(CC1SC(N2CCCC2)=NC1=O)Nc1ccc(C(=O)NCCc2ccc(F)cc2)cc1 (stereo unspecified) | false (0) |

----------
# test: qHTS for Inhibitors of human tyrosyl-DNA phosphodiesterase 1 (TDP1): qHTS in cells in presence of CPT; further: nearly all actives have a fitted effect of over 55% in size
# experimental.conditions: chicken DT40 Tdp1-/-;hTDP1 cells + 20 nM CPT, ATP luminescence, 48 h; series mostly up to 46.2 µM
The whole screen tested about 420,000 compounds, of which about 50,000 (12%) were called active. Inconclusive results (about 26%) are left out. Calls follow the shape of the dose curve; as a rule, active = well fitted inhibition curve with a large enough effect; inconclusive = small, poorly fitted or top-dose-only effect; inactive = flat fitted curve, though single readings scatter. The full list was thinned out, with actives kept by preference.
Possible outcomes: active, inactive

| compound | class |
| --- | --- |
| COc1c(C=O)c(CCN(C)C(=O)c2ccc(F)cc2)cc2c1OCO2 | inactive |
| Cc1c(O)cc2c(c1C)O[C@](C)(CCC[C@H](C)CCC[C@H](C)CCCC(C)C)CC2 | inactive |
| O=C(CCN1C(=O)C2C3CCC(C3)C2C1=O)Nc1ccc(Cl)cc1Cl (stereo not drawn) | inactive |
| O=S(=O)(NC1CC1)c1ccc(Cl)cc1 | inactive |
| COc1ccc(Nc2cc(C)nc(-n3nc(C)cc3C)n2)cc1 | active |
| COc1ccccc1Nc1nnc(SC(C)C(=O)NC2CC2)s1 (stereo not drawn) | inactive |
| O=C(COC(=O)c1ncc(Cl)c(Cl)c1Cl)NCc1ccccc1 | inactive |
| COc1ccc(Nc2nc(=O)[nH]nc2C)cc1 | inactive |
| O=C(NCCN1CCOCC1)c1cnn(-c2nccc(-c3cccs3)n2)c1C1CC1 | inactive |
| C/C(=N\NC(=O)c1ccoc1C)c1ccccc1O | active |
| O=C(Nc1ccc(Br)cc1)c1cccc(NC(=O)C2C3CC4OC(=O)C2C4C3)c1 (stereo not drawn) | inactive |
| Cc1cc(Oc2ccccc2)nc(N2CCOCC2)n1 | inactive |
| O=S(=O)(NC1CC1)c1ccc(F)c(F)c1 | inactive |
| Cc1ccc(/C=C/C(=O)OCC(=O)NCc2ccc(Cl)cc2)o1 | inactive |
| O=C(NC(=S)Nc1cc(C(F)(F)F)ccc1N1CCOCC1)c1ccc(-c2cccc(Cl)c2)o1 | inactive |
| Cc1cc(C)cc(C(=O)OCC(=O)NCCNC(=O)COC(=O)c2cc(C)cc(C)c2)c1 | inactive |
| Cc1ccc(C2(C)NC(=O)N(CC(=O)Nc3ccccc3C(=O)N3CCCCC3)C2=O)cc1 (stereo not drawn) | inactive |
| C/C(=N\NC(=O)c1ccccc1C)c1ccc(N2CCOCC2)cc1 | inactive |
| CCOC(=O)c1ccc(NC2Nc3cc(C)nn3S2)cc1 (stereo not drawn) | inactive |
| O=C(CSc1nnc(-c2cccs2)n1-c1ccccc1)NCc1ccco1 | inactive |
| O=C(CN1C(=O)S/C(=C\c2ccccc2F)C1=O)NCCCn1ccnc1 | inactive |
| Cn1sc(=O)c2cc(S(=O)(=O)NC3CC3)ccc21 | active |
| Cn1cccc1C(=O)N1CCc2ccccc2C1 | inactive |
